Measured melting point of individual entries

COMPOUND	melting point
COc1ccc2c(c1)CC(C(=O)O)O2 (racemic)	98 to 100 °C
Fc1ccc2[nH]cc(CCCCN3CCN(c4cccc(Cl)c4Cl)CC3)c2c1	147 to 148 °C
CCCCCc1c(C(C)C)nc(C(C)C)c(CO)c1-c1ccc(Cl)cc1	83 to 85 °C

Ask: Entry `Oc1cc(C(F)(F)F)nc2cccc(C(F)(F)F)c12` needs its melting point filled in; supply it.
Result: 314 to 315 °C

Ask: Tell me measured melting point for CS(=O)c1nnc(-c2ccc3occ(-c4cc(F)ccc4F)c3c2)o1 (stereo not given) please.
Result: 151 to 152 °C
